assay: photoluminescence quantum yield (fraction); solvent given as SMILES; settings: in O
reported.property: photoluminescence quantum yield

{"columns": ["smiles.repr", "measured.result"],
 "data": [
  ["NC(=O)CC[C@H](/[NH+]=C\\C=C1\\C=C(C(=O)O)N[C@H](C(=O)O)C1)C(=O)O", 0.0073],
  ["N#Cc1ccc(C[C@H](N)C(=O)O)cc1", 0.11],
  ["CNCCCC1c2ccccc2C=Cc2ccccc21", 0.62],
  ["C/C=C/C=C/C1=NC(=C\\c2ccc([O-])cc2)/C(=O)N1C", 0.0008],
  ["O=c1ccc2ccccc2o1", 0.001],
  ["CC[N+](CC)=c1ccc2c(-c3ccccc3C(=O)O)c3oc4cc(N)ccc4c3oc-2c1", 0.126]
]}

[I] CC1=N/C(=C\c2ccccc2N)C(=O)N1C
[II] CCCC(=O)c1c2c(c(C(=O)CCC)c3c1OC(CC(=O)OC)(C(=O)O)O3)OCO2
IN: Returns: the argument ( I or II ) having the larger photoluminescence quantum yield. Answer with the label corresponding to your selection.
OUT: II

---

test: photoluminescence quantum yield (fraction); solvent given as SMILES; conditions: in ClCCl
reported.property: photoluminescence quantum yield

Below, each entry is followed by its recorded photoluminescence quantum yield result.
{"columns": ["molecule", "photoluminescence quantum yield"],
 "data": [
  ["O=S1c2ccc(-c3c4ccccc4cc4ccccc34)cc2-c2cc(-c3c4ccccc4cc4ccccc34)ccc21", 0.27],
  ["Cc1cc2c3ccccc3oc2c2[nH]c3ccccc3c12", 0.444]
]}

[P] N#CC(C#N)=Cc1ccc(-c2ccc(-c3nc4ccccc4s3)c(O)c2)o1
[Q] CCOCCOCCOC(=O)/C=C/C1=CC2=C(c3c(C)cc(C)cc3C)c3cc(/C=C/C(=O)OCCOCCOCC)cn3[B-](F)(F)[N+]2=C1
[R] COC(=O)C1=C(C(=O)OC)C2(c3ccccc3-c3ccc([N+](=O)[O-])cc32)C2(/C=C/c3ccccc3)c3cc(OC)c(OC)cc3CCN12 (stereo not given)
IN: Put the entries in order of photoluminescence quantum yield, starting with the largest number. Put the labels in the requested order and write them down.
OUT: Q, P, R

[I] Fc1ccc(C2=C(c3ccc(F)cc3)c3cccc4c3c(cc3nc5ccccc5nc34)O2)cc1
[II] COc1ccccc1-c1c(-c2ccccc2O)nc(-c2ccc(C(F)(F)F)cc2)n1-c1ccc(C)cc1
IN: Look at I and II . Which one has the lower recorded photoluminescence quantum yield number? Use the label to indicate which entry you chose.
OUT: II
(II: 0.01, I: 0.35)

---

experiment: photoluminescence quantum yield (fraction); solvent given as SMILES; details: in ClCCl
reported.property: photoluminescence quantum yield

Use these answered entries as a reference point.
{"columns": ["compound", "reported.property", "measured.result"],
 "data": [
  ["Cc1ccccc1-c1c2ccc(=[N+]3CCCC3)cc-2oc2cc(N3CCCC3)ccc12", "photoluminescence quantum yield", 1],
  ["c1ccc(N(c2ccccc2)c2ccc(-c3ccc4c(c3)C3(c5cc(-c6ccc(N(c7ccccc7)c7ccccc7)cc6)ccc5S4)c4ccccc4-c4ccccc43)cc2)cc1", "photoluminescence quantum yield", 0.66],
  ["CN(C)c1ccc(-c2cc(-c3ccccc3)nn2C)cc1", "photoluminescence quantum yield", 0.06],
  ["F[B-]12OC(c3ccccc3)=Nc3cccc([n+]31)N=C(c1ccccc1)O2", "photoluminescence quantum yield", 0.2],
  ["CC(C)[Si]1(C(C)C)c2cc(C=O)ccc2-c2ccc(N(C)C)cc21", "photoluminescence quantum yield", 0.71],
  ["COc1ccc2cc([C@H](C)C(=O)O)ccc2c1", "photoluminescence quantum yield", 0.32],
  ["O=C1/C(=C\\c2ccc(N(c3ccccc3)c3ccccc3)cc2)S(=O)(=O)c2ccccc21", "photoluminescence quantum yield", 0.022],
  ["CCCCN(CCCC)c1ccc(C#Cc2cc(C#Cc3ccc(C(F)(F)F)cc3)c(C#Cc3ccc(C(F)(F)F)cc3)cc2C#Cc2ccc(N(CCCC)CCCC)cc2)cc1", "photoluminescence quantum yield", 0.44]
]}

[1] CCCCCCCCCCCCN1C(=O)c2c(c3ccc4cc(-c5ccc(Cl)cc5)c(OC)cc4c3c3c2ccc2cc(-c4ccc(Cl)cc4)c(OC)cc23)C1=O
[2] CCCCC(CC)Cn1c2cc(C#N)ccc2c2ccc(C#Cc3ccc4ccc5ccc(C#Cc6ccc7c8ccc(C#N)cc8n(CC(CC)CCCC)c7c6)c6ccc3c4c56)cc21 (stereo not given)
[3] CCN(CC)c1ccc2cc(-c3nc4c5ccccc5c5ccccc5c4n3-c3ccc(C(C)(C)C)cc3)c(=O)oc2c1
[4] CCCCCCCc1ccc(C2=[N+]3C(=C4c5cc(OCC(CC)CC)c(-c6ccc(CCCCCCC)o6)n5[B-](F)(F)[n+]5nnn(c54)[B-]3(F)F)C=C2OCC(CC)CC)o1
[5] CCCSc1ccc2n1[B-](F)(F)[N+]1=CC=CC1=C2c1ccccc1
IN: Given 5 compounds, produce a descending ranking by photoluminescence quantum yield. Please respond by ranking the labels in the order requested.
OUT: 3, 2, 1, 5, 4
(3: 0.97, 2: 0.51, 1: 0.144, 5: 0.04, 4: 0.02)

[I] CCCc1ccc(C#Cc2cc(C#Cc3ccc(N(C)C)cc3)c3ccc4c(C#Cc5ccc(N(C)C)cc5)cc(C#Cc5ccc(N(C)C)cc5)c5ccc2c3c54)cc1
[II] CCc1ccc(C2=[N+]3C(=Cc4c5ccc(OC)cc5c(-c5ccc(CC)s5)n4[B-]3(F)F)c3ccc(OC)cc32)s1
IN: Kindly identify which of I and II has the larger recorded photoluminescence quantum yield value. Selection: enter the item's label.
OUT: I
(I: 0.47, II: 0.2)

---

test: photoluminescence quantum yield (fraction); solvent given as SMILES; conditions: in O=P(c1ccccc1)(c1ccccc1)c1ccccc1Oc1ccccc1P(=O)(c1ccccc1)c1ccccc1
photoluminescence quantum yield for assorted molecules
Please give the numeric answer without any surrounding text.

{"columns": ["smiles.repr", "photoluminescence quantum yield"],
 "data": [
  ["CC(C)c1cc(C(C)C)c(B2c3ccccc3Oc3cc(-n4c5ccccc5c5ccc6c(c7ccccc7n6-c6ccccc6)c54)ccc32)c(C(C)C)c1", 0.631]
]}

IN: Look up and report measured photoluminescence quantum yield for this entry: CC1(C)c2ccccc2-n2c(-c3ccc(N4c5ccccc5Sc5ccccc54)cc3)nc3cccc1c32
OUT: 0.05

IN: Input Cc1ccc2c(c1)c1cc(C)ccc1n2-c1cccc(-n2c3ccc(C)cc3c3cc(C)ccc32)c1C#N , output reported photoluminescence quantum yield.
OUT: 0.66

IN: Hello, please tell me recorded photoluminescence quantum yield for this one: c1ccc2c(c1)Oc1ccccc1N2c1ccc2c(c1)c1ccccc1n1c3ccccc3nc21
OUT: 0.8

IN: Report photoluminescence quantum yield, nothing else, for this molecule: Cc1cc(C)c(B(c2c(C)cc(C)cc2C)c2c(C)cc(-n3c4ccc(N(c5ccccc5)c5ccccc5)cc4c4cc(N(c5ccccc5)c5ccccc5)ccc43)cc2C)c(C)c1
OUT: 1

IN: Return photoluminescence quantum yield for the following molecule: c1ccc(-c2nc(-c3ccccc3)nc(-c3cc(-n4c5ccccc5c5ncccc54)c(-n4c5ccccc5c5ccccc54)c(-n4c5ccccc5c5ncccc54)c3)n2)cc1
OUT: 0.85

IN: Look up and report measured photoluminescence quantum yield for this entry: CC1(C)c2ccccc2N(c2ccccc2)c2ccc(-c3nc(-c4ccccc4)nc(-c4ccccc4)n3)cc21
OUT: 0.55

---

assay: photoluminescence quantum yield (fraction); solvent given as SMILES; conditions: in O
reported.property: photoluminescence quantum yield

{"columns": ["smiles.repr", "measured.result"],
 "data": [
  ["C/C=C/C1=NC(=C\\c2ccc([O-])cc2)/C(=O)N1C", 0.0006],
  ["CC[N+]1(CC)CN2C(=N1)C(C(=O)O)=Cc1cc(F)ccc12", 0.344],
  ["CCCCOC(=O)c1ccccc1-c1c2ccc(=[N+](CC)CC)cc-2oc2cc(N(CC)CC)ccc12", 0.3],
  ["CC[N+](CC)=c1ccc2cc3c(oc-2c1)-c1ccc(N(C)C)cc1CC3", 0.282],
  ["NNC(=O)NNN1C(=O)c2cc(S(=O)(=O)[O-])cc3c(N)c(S(=O)(=O)[O-])cc(c23)C1=O", 0.21]
]}

[1] CC(=O)c1ccn2c3c(c(-c4cc[n+](C)cc4)c2c1)CN(C)C3=O
[2] CC[N+](CC)=c1ccc2c(C(F)(F)F)c3c(oc-2c1)-c1ccc(N(C)C)cc1CC3
IN: Consider 1 and 2 . Which of these has its photoluminescence quantum yield at a higher number? Pick one and reply with its label.
OUT: 1

---

assay: photoluminescence quantum yield (fraction); solvent given as SMILES; conditions: in CCO
reported.property: photoluminescence quantum yield

{"columns": ["compound", "photoluminescence quantum yield"],
 "data": [
  ["CC1=CC(C)=[N+]2C1=C(c1c3ccccc3c(C)c3ccccc13)c1c(C)cc(C)n1[B-]2(F)F", 0.005],
  ["CCC1=C(C)C2=C(c3c4ccccc4c(C)c4ccccc34)c3c(C)c(CC)c(C)n3[B-](F)(F)[N+]2=C1C", 0.314],
  ["CCCCOc1ccc2cc(-c3ccc(C)cc3)c(=O)oc2c1", 0.597],
  ["C(=C\\c1ccc(N(c2ccccc2)c2ccccc2)cc1)/c1ccc(-c2cc(-c3ccccn3)nc(-c3ccccn3)c2)cc1", 0.54],
  ["CC1=CC(C)=[N+]2C1=C(c1c3ccccc3cc3ccccc13)c1c(C)cc(C)n1[B-]2(F)F", 0.038]
]}

[1] CCCCOC(=O)c1ccccc1-c1c2ccc(=[N+](CC)CC)cc-2oc2cc(N(CC)CC)ccc12
[2] N#Cc1ccc(C[C@H](N)C(=O)O)cc1
[3] COc1ccc2c(c1)C(=O)c1ccccc1-2
IN: Ranking field: photoluminescence quantum yield; order: falling. # respond with the labels, arranged in the requested order
OUT: 1, 2, 3

[a] CCCCCCOc1ccc(-c2cnc(-c3nnc(-c4ccc(OCCCCCC)cc4)o3)o2)cc1
[b] NC(=O)CC[C@H](/[NH+]=C\C=C1\C=C(C(=O)O)N[C@H](C(=O)O)C1)C(=O)O
[c] Cc1nc2cc3c4c(cccc4c2o1)C(=O)OC3=O
[d] CCN(CC)c1ccc2cc(C#N)/c(=N\C(=O)c3ccc(F)cc3)oc2c1
[e] COc1ccc2cc([C@H](C)C(=O)O)ccc2c1
IN: Rank descending by photoluminescence quantum yield. Give me the labels in the order the question wants.
OUT: a, d, e, c, b
